- TARGET OR TEST SYSTEM: full-length WT STING (Homo sapiens, UniProt Q86WV6, H232R)
- Construct: AviTag (after gg linker) (C); HRV3C cleavage site (after gs linker) (C); HIS8 (C); made in house; host or cells: Trichoplusia ni (Hi-Five) insect cells infected with baculovirus (virus generated and amplified in Sf21 cells); used as a washed membrane preparation
- Sequence (Q86WV6 with tags, fused parts or gaps H232R): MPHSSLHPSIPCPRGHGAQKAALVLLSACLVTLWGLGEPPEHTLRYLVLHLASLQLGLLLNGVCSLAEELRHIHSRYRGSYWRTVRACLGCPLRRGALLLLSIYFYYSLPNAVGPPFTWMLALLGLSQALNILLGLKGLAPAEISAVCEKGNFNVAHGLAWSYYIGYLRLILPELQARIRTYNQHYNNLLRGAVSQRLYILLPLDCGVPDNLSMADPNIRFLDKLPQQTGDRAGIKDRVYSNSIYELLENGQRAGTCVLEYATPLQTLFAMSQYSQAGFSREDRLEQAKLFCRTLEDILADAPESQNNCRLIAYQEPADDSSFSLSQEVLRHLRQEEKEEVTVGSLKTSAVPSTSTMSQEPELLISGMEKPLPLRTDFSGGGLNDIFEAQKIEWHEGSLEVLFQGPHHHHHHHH
- ASSAY SUMMARY: 3H-cGAMP filtration binding assay (WT STING)
- PROTOCOL CONDITIONS: competition with tritiated cGAMP, WT STING membrane
PARAMETER MEASURED: log10 EC50 (log10 of the value in nM)

1. COc1cc2sc(C(=O)C[C@H](C)C(=O)O)cc2c(Cl)c1OCCOc1c(OC)cc2sc(C(=O)C[C@H](C)C(=O)O)cc2c1Cl	1.00
2. COc1cc2sc(C(=O)CCC(=O)O)cc2c(F)c1OCCCCCOc1c(OC)cc2sc(C(=O)CCC(=O)O)cc2c1F	3.42
3. COc1cc2sc(C(=O)CCC(=O)O)cc2cc1CCCOc1nc2cc(C(=O)CCC(=O)O)sc2cc1OC	2.62
4. COc1cc2sc(C(=O)C[C@H](C)C(=O)O)cc2c(F)c1OCCCCOc1c(OC)cc2sc(C(=O)C[C@H](C)C(=O)O)cc2c1Cl	1.40
5. COc1cc2sc(C(=O)C[C@H](C)C(=O)O)cc2nc1OCCCOc1c(OC)cc2sc(C(=O)CC(C)(C)C(=O)O)cc2c1F	0.30
6. COc1cc2sc(C(=O)CCC(=O)O)cc2cc1OCCCc1ccc2sc(C(=O)CCC(=O)O)cc2c1	2.31
7. COc1cc2sc(C(=O)C[C@H](C)C(=O)O)cc2cc1OCCCOc1cc2sc(C(=O)C[C@H](C)C(=O)O)cc2cc1OC	0.90

###

- TARGET OR TEST SYSTEM: full-length HAQ STING (Homo sapiens, UniProt Q86WV6, G230A/H232R/R293Q/R71H)
- Construct: AviTag (after GG linker) (C); HRV3C cleavage site (after GS linker) (C); HIS8 (C); made in house; host or cells: Trichoplusia ni (Hi-Five) insect cells infected with baculovirus (virus generated and amplified in Sf21 cells); used as a washed membrane preparation
- Sequence (Q86WV6 with tags, fused parts or gaps R71H/G230A/H232R/R293Q): as the sequence (Q86WV6 with tags, fused parts or gaps H232R) above, with R71H, G230A, R293Q counted along it
- ASSAY SUMMARY: 3H-cGAMP filtration binding assay (HAQ STING)
- PROTOCOL CONDITIONS: competition with tritiated cGAMP, HAQ STING membrane
- Source text: The ability of compounds to bind STING is quantified by the ability to compete with tritiated cGAMP ligand for human STING receptor membrane using a radioactive filter-binding assay. […] The ability of compounds to bind STING is quantified by their ability to compete with tritiated cGAMP ligand for human STING receptor membrane using a radioactive filter-binding assay. […]
Binary call on EC50 with cut-off 50 nM: strictly below means label 1, and equality or higher means label 0.

1. COc1cc2sc(C(=O)C[C@H](C)C(=O)O)cc2nc1OCCCOc1c(OC)cc2sc(C(=O)C[C@H](C)C(=O)O)cc2c1F (racemic) [Example 22]	label 1
2. COc1cc2sc(C(=O)C[C@H](C)C(=O)O)cc2c(F)c1OCCCCCOc1c(OC)cc2sc(C(=O)[C@@H]3CC[C@H]3C(=O)O)cc2c1F [Example 121]	label 0
3. COc1cc2cc(C(=O)C[C@H](C)C(=O)O)sc2cc1OCCCCOc1cc2sc(C(=O)C[C@H](C)C(=O)O)cc2cc1OC [Example 95]	label 0
4. COc1cc2cc(C(=O)C[C@H](C)C(=O)O)sc2cc1OCCCOc1ccc2cc(C(=O)CCC(=O)O)sc2c1 [Example 45]	label 0
5. COc1cc2sc(C[C@@H]3CC[C@H]3C(=O)O)cc2c(F)c1OCCCOc1c(OC)cc2sc(C(=O)C[C@H](C)C(=O)O)cc2c1F [Example 135]	label 1
6. COc1cc2sc(C(=O)C[C@H](C)C(=O)O)cc2c(F)c1OCCCOc1c(O)cc2sc(C(=O)C[C@H](C)C(=O)O)cc2c1F [Example 188]	label 1
7. COc1cc2sc(C(=O)C[C@H](C)C(=O)O)cc2c(Cl)c1OCCOc1c(OC)cc2sc(C(=O)C[C@H](C)C(=O)O)cc2c1Cl [Example 153]	label 1
8. COc1cc2cc(C(=O)C[C@H](C)C(=O)O)sc2cc1OCCCCCCOc1cc2sc(C(=O)C[C@H](C)C(=O)O)cc2cc1OC [Example 112]	label 0
9. COc1cc2sc(C(=O)C[C@H](C)C(=O)O)cc2cc1OCCCCOc1cc2cc(C(=O)C[C@H](C)C(=O)O)sc2cc1OC [Example 92]	label 1
10. COc1cc2sc(C(=O)C[C@H](C)C(=O)O)cc2c(Cl)c1OCCCOc1c(O)cc2sc(C(=O)C[C@H](C)C(=O)O)cc2c1F [Example 190]	label 1
11. COc1cc2sc(CC[C@H](C)C(=O)O)cc2cc1CCCc1cc2cc(C(=O)CCC(=O)O)sc2cc1OC [Example 31]	label 0
12. COc1cc2sc(C(=O)CCC(=O)O)cc2cc1OCCCOc1cc2sc(C(=O)CCC(=O)O)cc2cc1OC [Example 126]	label 1
